The origin of these recorded values is ChEMBL document CHEMBL3991601.

assayed.system: Casein kinase I isoform alpha (Homo sapiens, UniProt P48729); note: in the data inactive means no Kd found up to 30 µM
Sequence (P48729 whole entry, canonical isoform): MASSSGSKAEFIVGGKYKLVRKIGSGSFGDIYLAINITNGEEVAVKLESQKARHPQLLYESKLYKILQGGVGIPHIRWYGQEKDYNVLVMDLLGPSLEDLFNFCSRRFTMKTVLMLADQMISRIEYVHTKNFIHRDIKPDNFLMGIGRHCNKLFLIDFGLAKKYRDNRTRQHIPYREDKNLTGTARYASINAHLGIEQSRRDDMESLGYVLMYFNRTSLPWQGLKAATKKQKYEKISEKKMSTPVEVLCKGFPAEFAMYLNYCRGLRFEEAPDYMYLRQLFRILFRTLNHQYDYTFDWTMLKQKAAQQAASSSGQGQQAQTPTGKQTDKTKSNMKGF
Calls of active or inactive are those of the source.
Outcomes: true (1) = active, false (0) = inactive

INSERT INTO results (structure, group) VALUES
  ('COc1c(OCCCN2CCOCC2)ccc2c1N=C(NC(=O)c1cnc(N)nc1)N1CCN=C21', 'false (0)'),
  ('Cn1ncc(Cl)c1-c1cc(C(=O)N[C@H](CN)Cc2ccc(F)c(F)c2)oc1Cl', 'true (1)'),
  ('Cc1cc(Nc2ncc(Cl)c(Nc3ccccc3S(=O)(=O)C(C)C)n2)c(OC(C)C)cc1C1CCNCC1', 'false (0)'),
  ('C#Cc1cccc(Nc2ncnc3cc(OC)c(OCCCCCCC(=O)NO)cc23)c1', 'false (0)');
